Biological target: Nucleic Acid
Experiment: Binding affinity to HIV1 frameshift-stimulating RNA by fluorescence titration in presence of yeast tRNA
Format: nucleic-acid assay, Human immunodeficiency virus 1
Conditions: read-out: Kd
parameter: pKd
Note on pKd: it is the negative log10 of concentration, concentration in mol/L.

# input Provide one value: measured pKd of "CCc1nc2ccccc2cc1C(=O)N[C@@H](C/C=C/C[C@H](NC(=O)c1cc2ccccc2nc1CC)C(=O)N1CCC[C@H]1C(=O)N[C@@H](Cc1ccccc1)C(=O)NCCCN)C(=O)N1CCC[C@H]1C(=O)N[C@@H](Cc1ccccc1)C(=O)NCCCN"
# output 6.41

# input Provide one value: measured pKd of "CCc1nc2ccccc2cc1C(=O)N[C@@H](CCCC[C@H](NC(=O)c1cc2ccccc2nc1CC)C(=O)N1CCC[C@H]1C(=O)N[C@@H](Cc1ccccc1)C(=O)NCCCN)C(=O)N1CCC[C@H]1C(=O)N[C@@H](Cc1ccccc1)C(=O)NCCCN"
# output 5.85

# input Provide one value: measured pKd of "CCc1nc2ccccc2cc1C(=O)N[C@@H](CSSC[C@H](NC(=O)c1cc2ccccc2nc1CC)C(=O)N1CCC[C@H]1C(=O)N[C@@H](Cc1ccccc1)C(=O)NCCCN)C(=O)N1CCC[C@H]1C(=O)N[C@@H](Cc1ccccc1)C(=O)NCCCN"
# output 6.70

# input Provide one value: measured pKd of "CCc1nc2ccccc2cc1C(=O)N[C@@H](C/C=C\C[C@H](NC(=O)c1cc2ccccc2nc1CC)C(=O)N1CCC[C@H]1C(=O)N[C@@H](Cc1ccccc1)C(=O)NCCCN)C(=O)N1CCC[C@H]1C(=O)N[C@@H](Cc1ccccc1)C(=O)NCCCN"
# output 6.59
